Test system: Fibroblast
TEST_PROTOCOL: Multiplex assay against human fibroblast
Type: toxicity, cell-based
CONDITION_PARAMETERS: 48 h, 1 µM, compound concentration 1 uM, replicate 2
Friendly reminder: Population Mitotic Cells (%) below 50% is yes, at or above is no.

Task: Consider the molecule "Cc1c(P(=S)(c2ccccc2)c2ccccc2)n2ccccc2[n+]1C/C=C/c1ccccc1.[Br-]" . Is its Population Mitotic Cells (%) strictly less than 50%?
Result: yes

Task: Consider the molecule CCCCCNC(=N)N/N=C/c1c[nH]c2ccc(OC)cc12.O=C(O)/C=C\C(=O)O [TEGASEROD MALEATE] . Is its Population Mitotic Cells (%) strictly less than 50%?
Result: yes

Task: Consider the molecule "CC(/C=C1\SC(=S)N(CCCC(=O)Nc2ccc(C(=O)O)c(O)c2)C1=O)=C\c1ccccc1" . Is its Population Mitotic Cells (%) strictly less than 50%?
Result: yes

Task: Consider the molecule N#CCNC(=O)c1ccc(-c2ccnc(Nc3ccc(N4CCOCC4)cc3)n2)cc1 [MOMELOTINIB] . Is its Population Mitotic Cells (%) strictly less than 50%?
Result: yes

Task: Consider the molecule "CC(C)c1cc(Nc2nc(N3CCC[C@H](N)C3)ncc2C(N)=O)cc(C(C)C)n1" . Is its Population Mitotic Cells (%) strictly less than 50%?
Result: no

Task: Consider the molecule CC(Cc1ccc(O)c(O)c1)C(C)Cc1ccc(O)c(O)c1 (stereo not drawn) [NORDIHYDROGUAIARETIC ACID] . Is its Population Mitotic Cells (%) strictly less than 50%?
Result: yes

Task: Consider the molecule CN1C(=O)[C@@H](NC(=O)c2cc3ccccc3[nH]2)N=C(c2ccccc2)c2ccccc21 [DEVAZEPIDE] . Is its Population Mitotic Cells (%) strictly less than 50%?
Result: no

Task: Consider the molecule Oc1cccc(-c2nc(N3CCOCC3)c3oc4ncccc4c3n2)c1 [PI-103] . Is its Population Mitotic Cells (%) strictly less than 50%?
Result: yes

Task: Consider the molecule "CN(c1cc(C(F)(F)F)nc(OCCC(=O)O)n1)c1cccc2c1CCC2" . Is its Population Mitotic Cells (%) strictly less than 50%?
Result: no

Task: Consider the molecule "N#Cc1cccc(C(=O)Nc2cc(-c3ccccc3)nn2-c2ccccc2)c1" . Is its Population Mitotic Cells (%) strictly less than 50%?
Result: no

Task: Consider the molecule "CCCCN(CC)c1nc(C)nc2c1c(C)cn2-c1c(C)cc(C)cc1C.Cl" . Is its Population Mitotic Cells (%) strictly less than 50%?
Result: yes

Task: Consider the molecule CC(C)C[C@H](NC(=O)[C@H](Cc1ccccc1)NC(=O)CNC(=O)CNC(=O)[C@@H](N)Cc1ccc(O)cc1)C(=O)O [ENKEPHALIN] . Is its Population Mitotic Cells (%) strictly less than 50%?
Result: yes

Task: Consider the molecule "Cc1ccc(S(=O)(=O)NC2c3ccccc3Oc3ccccc32)cc1" . Is its Population Mitotic Cells (%) strictly less than 50%?
Result: yes

Task: Consider the molecule C[C@@H](Oc1cc(-n2cnc3ccc(CN4CCN(C)CC4)cc32)sc1C(N)=O)c1ccccc1C(F)(F)F [GSK-461364] . Is its Population Mitotic Cells (%) strictly less than 50%?
Result: no

Task: Consider the molecule "C=CC(=O)Nc1cc(-n2c(=O)ccc3cnc4ccc(-c5ccc(NS(C)(=O)=O)cc5)cc4c32)ccc1C" . Is its Population Mitotic Cells (%) strictly less than 50%?
Result: no

Task: Consider the molecule "Cl.NC[C@@H]1O[C@H](C23CC4CC(CC(C4)C2)C3)Cc2c1ccc(O)c2O" . Is its Population Mitotic Cells (%) strictly less than 50%?
Result: yes
